Biological target: Growth factor receptor-bound protein 2 (Mus musculus, UniProt Q60631)
Sequence (Q60631 whole entry): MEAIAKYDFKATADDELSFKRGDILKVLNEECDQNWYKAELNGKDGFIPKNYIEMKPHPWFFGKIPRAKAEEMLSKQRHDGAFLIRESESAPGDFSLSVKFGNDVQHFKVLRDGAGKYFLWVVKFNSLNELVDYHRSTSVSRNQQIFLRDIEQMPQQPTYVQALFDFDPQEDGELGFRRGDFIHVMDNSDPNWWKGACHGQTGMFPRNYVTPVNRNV
Assay: In vitro binding assay of Shc-derived phosphopeptide to Growth factor receptor bound protein 2 SH2 in B104-1-1 cells was determined
pIC50 values, listed per item
As a rule, pIC50 stands for the negative log10 of the concentration, concentration in M.

| compound | tgt | pIC50 |
| --- | --- | --- |
| Cc1c2oc3c(C)ccc(C(=O)N[C@@H]4C(=O)N[C@H](Cc5ccc(O)cc5)C(=O)N5CCC[C@H]5C(=O)N(C)CC(=O)N[C@@H](C(C)C)C(=O)O[C@@H]4C)c3nc-2c(C(=O)N[C@@H]2C(=O)N[C@H](Cc3ccc(O)cc3)C(=O)N3CCC[C@H]3C(=O)N(C)CC(=O)N[C@@H](C(C)C)C(=O)O[C@@H]2C)c(N)c1=O (stereo in doubt; 1) | Growth factor receptor-bound protein 2 (Mus musculus, UniProt Q60631) | 6.30 |
| Cc1c2oc3c(C)ccc(C(=O)N[C@@H]4C(=O)N[C@H](C(C)C)C(=O)N5CCC[C@H]5C(=O)N(C)CC(=O)N[C@H](C(C)C)C(=O)O[C@@H]4C)c3nc-2c(C(=O)N[C@@H]2C(=O)N[C@H](C(C)C)C(=O)N3CCC[C@H]3C(=O)N(C)CC(=O)N[C@H](C(C)C)C(=O)O[C@@H]2C)c(N)c1=O | Growth factor receptor-bound protein 2 (Mus musculus, UniProt Q60631) | 6.00 |

Now for a further compound.
Sample COc1ccc(C[C@H]2NC(=O)CN(C)C(=O)[C@@H]3CCCN3C(=O)[C@@H](C(C)C)NC(=O)[C@@H](NC(=O)c3c4nc5c(C(=O)N[C@@H]6C(=O)N[C@H](C(C)C)C(=O)N7CCC[C@H]7C(=O)N(C)CC(=O)N[C@H](Cc7ccc(OC)cc7)C(=O)O[C@@H]6C)ccc(C)c5oc-4c(C)c(=O)c3N)[C@@H](C)OC2=O)cc1 — what was its pIC50?
5.70

meta.source: ChEMBL document CHEMBL1133215
